# System: A549 NSCLC
# measurementNotes: NCI tumour cell line growth inhibition, 48 h
quantityName: TGI

molecule	testTarget	result
CC1(C)OC(=C(C#N)C#N)C(C#N)=C1/C=C/c1ccncc1	A549 NSCLC	34.1 µM
Cc1c(Cl)cccc1N1C(=O)C(Cl)=C(Cl)C1=O	A549 NSCLC	> 100 µM
O=c1[nH]c(=O)n(C2CC(O)C(CO)O2)cc1CO (centres undefined)	A549 NSCLC	> 100 µM
Cc1ccc(-c2c3c(n(C4OC(CO)C(O)C(O)C4O)c(=S)c2C#N)CC(C)(C)CC3=O)cc1 (centres undefined)	A549 NSCLC	> 100 µM
O=[N+]([O-])c1ccc(S(=O)(=O)N=Ic2ccccc2)cc1	A549 NSCLC	> 100 µM
Cn1cc(C2=C(c3cn(C)c4cc(C(N)=O)ccc34)C(=O)NC2=O)c2ccccc21	A549 NSCLC	> 25 µM
NC12Oc3cc(O)cc(O)c3C1(c1ccc(Cl)cc1)c1c(O)cc(O)cc1O2 (centres undefined)	A549 NSCLC	> 100 µM
O=C(CC(O)(C(F)(F)F)C(F)(F)F)c1cc(CC(=O)C(O)(C(F)(F)F)C(F)(F)F)cc(CC(=O)C(O)(C(F)(F)F)C(F)(F)F)c1	A549 NSCLC	5.62 µM
CCCCCCC[CH2][Sn]1([CH2]CCCCCCC)[O]C(=O)c2cccnc2[S]1	A549 NSCLC	> 100 µM
CCOC(=O)C1(c2ccccc2)CCC(=O)CC1	A549 NSCLC	> 100 µM
C=CCCCCCCCCCCC1(O)C=CC2=[N+](CCCCCN=C(N)N)CCCN21 (centres undefined)	A549 NSCLC	24.6 µM
O=c1c2c(-c3ccccc3)onc2n(-c2ccccc2)c(=O)n1-c1ccccc1	A549 NSCLC	> 100 µM
CC(=O)Nc1ccc(-c2nc3cc(Cl)ccc3o2)cc1	A549 NSCLC	> 50 µM
CCSc1[nH]c(Nc2nc(-c3ccccc3)n(-c3ccccc3)n2)c(C(N)=O)c1C(N)=O	A549 NSCLC	> 10 µM
COc1cc(C2SCC(=O)N2c2ccc(Cl)c(Cl)c2)cc(OC)c1OC (centres undefined)	A549 NSCLC	> 100 µM
Nc1nc2c(ncn2Cc2ccc(CO)cc2)c(=O)[nH]1	A549 NSCLC	> 100 µM
COc1cc(C2c3cc4c(cc3C(O)C(CO)C2CO)OCO4)cc(OC)c1OC (centres undefined)	A549 NSCLC	> 100 µM
COc1c(OC)c(OC)c(C(=O)/C=C/c2ccccc2)c(OC)c1OC	A549 NSCLC	46.2 µM
CCOc1ccc2nc(S/C(=C/C=C(C#N)C#N)c3ccc(C)cc3)sc2c1	A549 NSCLC	> 100 µM
Cc1ccc(/C=C/c2c(C(=O)/C=C/c3ccc(C(F)(F)F)cc3)c(C)nc3ccccc23)cc1	A549 NSCLC	4.76 µM
CCOP(=O)(O)C(C)(C)NC	A549 NSCLC	> 100 µM
CC(/C=N\NC(=S)N1CCCCC1)=N/NC(=S)N1CCCCC1	A549 NSCLC	18.5 µM
CC[C@]1(Cc2ccc(OC)c(OC)c2)[C@@H]2C[C@@H](C3OCCO3)ON2O[C@H](OC2CCCC2(c2ccccc2)c2ccccc2)[C@@H]1OC(C)=O (some centres undefined)	A549 NSCLC	79.5 µM
O=C(NC(=O)c1cn(CCNCCO)c(=O)[nH]c1=O)OCc1ccccc1	A549 NSCLC	> 100 µM
NS(=O)(=O)c1ccc(N(/C=C/C(=O)C(F)(F)F)CC(=O)c2ccc(Cl)cc2)cc1	A549 NSCLC	> 100 µM
CC(=O)n1c2c(c(=O)n1-c1ccccc1)S(=O)CCC2 (centres undefined)	A549 NSCLC	> 100 µM
CCOC(=O)C(C)(C)Oc1ccc2c(C)c(-c3ccc(Cl)cc3)c(=O)oc2c1	A549 NSCLC	> 100 µM
CC(=O)OC1O[C@@H](C(C)(C)O)CC[C@@H]1[C@H]1CC[C@@]2(C)C3=C(CC[C@]12C)[C@@]1(C)C[C@@H](OC(=O)CC(C)(O)CC(=O)O)[C@H](OC(C)=O)C(C)(C)C1CC3 (some centres undefined)	A549 NSCLC	30.9 µM
COc1cc(-c2nn(-c3cccc(NC(=O)Nc4ccc(Cl)c(Cl)c4)c3)cc2-c2ccncc2)ccc1Cl	A549 NSCLC	> 50 µM
COc1ccncc1C#Cc1cncc(C(=O)Nc2ccc(CN3CCN(C)CC3)c(C(F)(F)F)c2)c1	A549 NSCLC	> 100 µM
COC(=O)c1c(O)ccc2c1c1c(n2Cc2ccc(Cl)cc2Cl)C(=O)c2ccccc2C1	A549 NSCLC	> 100 µM
CC1(C)OCCn2c1nc1c(N3CCOCC3)nc(-c3cnc(N)nc3)nc12	A549 NSCLC	4.4 µM
S=c1[nH]n2c(COc3cccc(OCc4nnc5sc(=S)[nH]n45)c3)nnc2s1	A549 NSCLC	> 100 µM
COc1ccc(C(OCC2OC(n3cc(C)c(=O)[nH]c3=O)CC2n2cc(Cn3cc(Br)c(=O)[nH]c3=O)nn2)(c2ccccc2)c2ccccc2)cc1 (centres undefined)	A549 NSCLC	> 100 µM
C1CSCCSCCS1	A549 NSCLC	> 100 µM
N#Cc1c(-c2ccc(F)cc2)c(-c2ccc(F)cc2)nn(CCO)c1=O	A549 NSCLC	> 100 µM
COc1ccc(CN(Cc2ccc(OC)cc2)C(=O)CC2(O)C=CCC2)cc1 (centres undefined)	A549 NSCLC	> 100 µM
CCCCCCNC(=O)c1nc(-c2ccccc2)oc1Cc1ccc(OP(=O)(O)O)cc1	A549 NSCLC	36 µM
COC(=O)C1C=CN(N(C)C)C2=C1C(=O)c1c(O)cccc1C2=O (centres undefined)	A549 NSCLC	6.44 µM
